# protocolSummary: physchem
# cond: PBS buffer, pH 7.4
# Description: Aqueous solubility in PBS buffer at pH 7.4 by HPLC analysis
Readings of solubility for the listed compounds
measure: solubility

• Cc1[nH]nc2[nH]c(=O)cc([C@H]3CC[C@H](NC(=O)[C@@H]4CC4(F)F)CC3)c12 = 43 µM
• Cc1[nH]nc2[nH]c(=O)cc(C3CC4CCC3CC4)c12 (racemic) = 8 µM
• Cc1[nH]nc2[nH]c(=O)cc([C@H]3CC[C@H](NC(=O)[C@H]4CC4(F)F)CC3)c12 = 29 µM

* * *

# protocolSummary: physchem
# cond: octanol/water
# Description: Lipophilicity, logD of the compound by shake flask assay
measure: logD

• Cc1[nH]nc2[nH]c(=O)cc([C@H]3C[C@H]4C[C@@H]3C[C@@H]4CC#N)c12 = 1.5
• Cc1[nH]nc2[nH]c(=O)cc([C@H]3CC[C@H](O)CC3)c12 = 0.8
• Cc1[nH]nc2[nH]c(=O)cc(C3CCCCC3)c12 = 2.8
• CCCS(=O)(=O)N[C@H]1C[C@@H](N(C)c2ncnc3[nH]ccc23)C1 [ABROCITINIB] = 2
• Cc1[nH]nc2[nH]c(=O)cc([C@H]3CC[C@H](CC(=O)N4CC(C#N)C4)CC3)c12 = 0.5
• Cc1[nH]nc2[nH]c(=O)cc([C@H]3CC[C@H](CC(=O)N4CCC(C)(C)CC4)CC3)c12 = 2.9
• Cc1[nH]nc2[nH]c(=O)cc([C@H]3CC[C@H](NC(=O)[C@H]4CC4(F)F)CC3)c12 = 1.3
• Cc1[nH]nc2[nH]c(=O)cc([C@H]3CC[C@H](CC(=O)N4CCC(c5ccccc5)C4)CC3)c12 (mixture of isomers) = 3
• Cc1[nH]nc2[nH]c(=O)cc(CC3CCC3)c12 = 2.2
• Cc1[nH]nc2[nH]c(=O)cc(C3CCCC3)c12 = 2.2
• Cc1[nH]nc2[nH]c(=O)cc([C@H]3CCCC[C@H]3C)c12 (racemic) = 3
• Cc1[nH]nc2[nH]c(=O)cc([C@H]3CC[C@H](CC(=O)N4CC(Cc5ccccc5)C4)CC3)c12 = 3
• Cc1[nH]nc2[nH]c(=O)cc([C@H]3CC[C@H](NC(=O)C4CC4)CC3)c12 = 1.2
• Cc1[nH]nc2[nH]c(=O)cc(C3CC4CCC3CC4)c12 (racemic) = 3.3
• Cc1[nH]nc2[nH]c(=O)cc([C@H]3C[C@H]4CC[C@@H]3C4)c12 (racemic) = 2.8
• Cc1[nH]nc2[nH]c(=O)cc([C@@H]3C[C@H]4CC[C@@H]3C4)c12 (racemic) = 2.7
• Cc1[nH]nc2[nH]c(=O)c(CCO)c(C3CCCCC3)c12 = 2.6
• Cc1[nH]nc2[nH]c(=O)cc([C@H]3CC[C@H](NC(=O)[C@@H]4CC4(F)F)CC3)c12 = 1.3
• Cc1[nH]nc2[nH]c(=O)cc([C@H]3CC[C@H](CC(=O)N4CCC(C#N)C4)CC3)c12 (mixture of isomers) = 0.7
